Listing: activity at 10 µM of selected molecules
- System: panel of approximately sixty human tumor cell lines
- Assay explanation: NCI-60 human tumor cell lines screen (SRB), full panel
- Format: cell-based
- Condition label: Homo sapiens; 60 cell lines assay in one dose, 10 μM, 48 h; read-out: Mean Growth, %
Express it in %; write the number only.

Reference set (3 entries):
{"Molecule": "O=c1c(=Cc2cccs2)sc2ncnn12 [Compound 2k]", "Unit of measurement": "%", "Quantitative result": 111}
{"Molecule": "CCN(CC)c1ccc(/C=c2\\sc3ncnn3c2=O)cc1 [Compound 2e]", "Unit of measurement": "%", "Quantitative result": 102}
{"Molecule": "O=c1/c(=C/Nc2ccc(Cl)cc2)sc2ncnn12 [Compound 5f]", "Unit of measurement": "%", "Quantitative result": 93.6}

# input Which activity at 10 µM value is on record for O=C(O)CSc1nnc[nH]1 [Compound 3] ?
# output 97.2

# input Which activity at 10 µM value is on record for CC(=O)n1cc(/C=c2\sc3ncnn3c2=O)c2ccccc21 [Compound 2l] ?
# output 105

# input Which activity at 10 µM value is on record for O=c1/c(=C/c2ccccc2F)sc2ncnn12 [Compound 2a] ?
# output 90

# input Which activity at 10 µM value is on record for CC(=O)Oc1ccc(/C=c2\sc3ncnn3c2=O)cc1 [Compound 2d] ?
# output 99.7

# input Which activity at 10 µM value is on record for C=CCOc1ccccc1/C=c1\sc2ncnn2c1=O [Compound 2c] ?
# output 103

# input Which activity at 10 µM value is on record for O=c1/c(=C/Nc2cccc(O)c2)sc2ncnn12 [Compound 5e] ?
# output 101

# input Which activity at 10 µM value is on record for COc1ccc(/C=c2\sc3ncnn3c2=O)cc1OC [Compound 2f] ?
# output 108

# input Which activity at 10 µM value is on record for O=c1/c(=C/c2ccco2)sc2ncnn12 [Compound 2j] ?
# output 106

# input Which activity at 10 µM value is on record for O=C(COc1ccc(Cl)cc1/C=c1\sc2ncnn2c1=O)Nc1ccc(Cl)cc1 [Compound 2h] ?
# output 29

Reference source: paper PMC7926352
